- Test system: OVCAR-3 ovarian
- assay.method.text: NCI tumour cell line growth inhibition, 48 h
Readings of TGI for the listed compounds
quantity.measured: TGI (µM)

[[record]]
compound = "CCNc1cc2c3c(c1)CCN3CCC2"
quantity_measured = "TGI"
measurement_unit = "µM"
result_qualifier = ">"
endpoint_result = 10

[[record]]
compound = "O=C(NC(=O)c1c(Cl)nc2sccn12)Nc1ccc(Cl)cc1"
quantity_measured = "TGI"
measurement_unit = "µM"
result_qualifier = ">"
endpoint_result = 100

[[record]]
compound = "NCCSCCC(=O)O"
quantity_measured = "TGI"
measurement_unit = "µM"
result_qualifier = ">"
endpoint_result = 100

[[record]]
compound = "Oc1ccc(Oc2cc3c(cc2Oc2ccc(O)cc2)-c2nc-3nc3[nH]c(nc4nc(nc5[nH]c(n2)c2cc(Oc6ccc(O)cc6)c(Oc6ccc(O)cc6)cc52)-c2cc(Oc5ccc(O)cc5)c(Oc5ccc(O)cc5)cc2-4)c2cc(Oc4ccc(O)cc4)c(Oc4ccc(O)cc4)cc32)cc1"
quantity_measured = "TGI"
measurement_unit = "µM"
result_qualifier = ">"
endpoint_result = 100

[[record]]
compound = "O=c1[nH]nc(Cc2ccc(Cl)cc2)n1/N=C/c1ccc([N+](=O)[O-])o1"
quantity_measured = "TGI"
measurement_unit = "µM"
result_qualifier = "="
endpoint_result = 25.9

[[record]]
compound = "COc1cc(C2C3=C(COC3=O)N(CCO)c3cc4c(cc32)OCCO4)cc(OC)c1OC (centres undefined)"
quantity_measured = "TGI"
measurement_unit = "µM"
result_qualifier = "="
endpoint_result = 0.315

[[record]]
compound = "CC1(C)Oc2ccc3c(=O)cc(-c4ccccc4)oc3c2C1C(=O)O (centres undefined)"
quantity_measured = "TGI"
measurement_unit = "µM"
result_qualifier = ">"
endpoint_result = 100

[[record]]
compound = "CCCc1cc(=O)n2c(C(=O)Nc3ccc(F)cc3)c(C(=O)Nc3ccc(F)cc3)sc2n1"
quantity_measured = "TGI"
measurement_unit = "µM"
result_qualifier = "="
endpoint_result = 49.8

[[record]]
compound = "CC1=CCC[C@H]2[C@](C)(CC3=CC(=O)C(SCC(C)C)=CC3=O)[C@@H](C)CC[C@]12C"
quantity_measured = "TGI"
measurement_unit = "µM"
result_qualifier = "="
endpoint_result = 42.1


----------
Readings of TGI for the listed compounds
- Test system: NCI-H226 lung
- assay.method.text: NCI tumour cell line growth inhibition, 48 h
quantity.measured: TGI

[[record]]
compound = "O=C(O)/C(Cc1cn[nH]n1)=N\\O"
quantity_measured = "TGI"
endpoint_result = "> 100 µM"

[[record]]
compound = "O=C(O)/C=C\\C(=O)Nn1c(Cc2ccc(Cl)cc2)n[nH]c1=O"
quantity_measured = "TGI"
endpoint_result = "> 100 µM"

[[record]]
compound = "CCN(CC)C(=O)CCN1CC1"
quantity_measured = "TGI"
endpoint_result = "> 10 µM"

[[record]]
compound = "Cc1ccc2nc(NC(=O)C(=O)C(C#N)c3ccc(Cl)cc3)sc2c1 (stereo unspecified)"
quantity_measured = "TGI"
endpoint_result = "> 50 µM"

[[record]]
compound = "O=c1[nH]c(=O)n(C2OC(CO)C(O)C2O)cc1OCCCc1ccccc1 (stereo unspecified)"
quantity_measured = "TGI"
endpoint_result = "> 100 µM"

[[record]]
compound = "Cc1cc(C)c(C#N)c(Sc2nc(C)c([N+](=O)[O-])c(C)c2C#N)n1"
quantity_measured = "TGI"
endpoint_result = "10.5 µM"

[[record]]
compound = "Cc1ncc(COP(=O)(O)O)c(/C=C2\\SC(=S)NC2=O)c1O"
quantity_measured = "TGI"
endpoint_result = "> 100 µM"

[[record]]
compound = "CC(=O)OC[C@H]1On2nnnc2[C@H](OC(C)=O)[C@@H](OC(C)=O)[C@@H]1OC(C)=O"
quantity_measured = "TGI"
endpoint_result = "> 100 µM"

[[record]]
compound = "O=C(Nc1ccccc1I(=O)=O)C1CCCCC1"
quantity_measured = "TGI"
endpoint_result = "> 100 µM"

[[record]]
compound = "CCN(CC)CCCC(C)Nc1cc(-c2cccc(OC(F)(F)F)c2)nc2ccc(N3CCCC3)cc12 (stereo unspecified)"
quantity_measured = "TGI"
endpoint_result = "9.57 µM"

[[record]]
compound = "Cc1c([C@H](C)[C@@H]2NC[C@@H](C)C[C@H]2O)ccc2c1C[C@H]1[C@H]2CC=C2C[C@@H](O)CC[C@@]21C"
quantity_measured = "TGI"
endpoint_result = "38.1 µM"


Where do these numbers come from? They come from PubChem BioAssay (NCI).
